system: E. coli TESEC Mtb Asd; assay: growth (OD600 after 10 h); higher = more growth (less inhibition); settings: arabinose induction (level): High; compound 0.1 mM; raw OD600 reference: median of DMSO wells 0.331, cell-free background 0.041
Structures can show the parent of a compound that is named as a salt.
Quick rule: growth of at least 0.3 means class 1, below that means class 0.

- MOLECULE: "Cc1ccnc2c1NC(=O)c1cccnc1N2C1CC1"
  CLASS_NAME: "class 1"
- MOLECULE: "O=C1CN(/N=C/c2ccc([N+](=O)[O-])o2)C(=O)N1"
  CLASS_NAME: "class 0"
- MOLECULE: "Cn1c(=O)c2nc[nH]c2n(C)c1=O [Theophylline monohydrate]"
  CLASS_NAME: "class 1"
- MOLECULE: "C#C[C@]1(O)CC[C@H]2[C@@H]3CCC4=CC(=O)CC[C@@H]4[C@H]3CC[C@@]21CC [Norgestrel-(-)-D]"
  CLASS_NAME: "class 1"
- MOLECULE: "OCCN(CCO)c1nc(N2CCCCC2)c2nc(N(CCO)CCO)nc(N3CCCCC3)c2n1"
  CLASS_NAME: "class 0"
- MOLECULE: "CC(C)(C)c1ccc(C(O)CCCN2CCC(C(O)(c3ccccc3)c3ccccc3)CC2)cc1 (centres undefined)"
  CLASS_NAME: "class 0"
- MOLECULE: "CC(=O)Oc1ccccc1C(=O)Oc1ccccc1C(=O)O"
  CLASS_NAME: "class 1"
- MOLECULE: "COc1ccc(OC)c(C(O)CNC(=O)CN)c1 (centres undefined) [Midodrine hydrochloride]"
  CLASS_NAME: "class 1"
- MOLECULE: "O=P(O)(O)C(Cl)(Cl)P(=O)(O)O [Clodronate]"
  CLASS_NAME: "class 1"

* * *

Recorded growth by entry
tested on: E. coli TESEC Mtb Alr; assay: growth (OD600 after 10 h); higher = more growth (less inhibition); conditions: arabinose 1000 nM; compound 0.1 mM; raw OD600 reference: median of DMSO wells 0.294, cell-free background 0.041
Counter-ions that a name gives are not always drawn.
VALUE_KIND: growth

- COMPOUND: "CC[C@H](C)C(=O)O[C@H]1CCC=C2C=C[C@H](C)[C@H](CC[C@@H]3C[C@@H](O)CC(=O)O3)[C@H]21 [Mevastatin]"
  ASSAY_RESULT: 0.152
- COMPOUND: "O=C(O)CCC(=O)Nc1ccc(S(=O)(=O)Nc2nccs2)cc1 [Succinylsulfathiazole]"
  ASSAY_RESULT: 0.328
- COMPOUND: "COc1cc(C(=O)N2CCOCC2)cc(OC)c1OC [Trimetozine]"
  ASSAY_RESULT: 0.313
- COMPOUND: "CCOC(=O)O[C@]1(C(=O)COC(=O)CC)CC[C@H]2[C@@H]3CCC4=CC(=O)C=C[C@]4(C)[C@H]3[C@@H](O)C[C@@]21C [Prednicarbate]"
  ASSAY_RESULT: 0.268
- COMPOUND: "NS(=O)(=O)c1cc(C(=O)O)cc(N2CCCC2)c1Oc1ccccc1 [Piretanide]"
  ASSAY_RESULT: 0.28
- COMPOUND: "O=c1oc2ccccc2c(O)c1Cc1c(O)c2ccccc2oc1=O [Dicumarol]"
  ASSAY_RESULT: 0.159
- COMPOUND: "CN(C)CC/C=C1/c2ccccc2COc2ccc(CC(=O)O)cc21 [Olopatadine hydrochloride]"
  ASSAY_RESULT: 0.281
- COMPOUND: "CC(=O)CC(c1ccccc1)c1c(O)c2ccccc2oc1=O (stereo unspecified) [Warfarin]"
  ASSAY_RESULT: 0.273
- COMPOUND: "O=C1CCC(N2C(=O)c3ccccc3C2=O)C(=O)N1 (stereo unspecified) [Thalidomide]"
  ASSAY_RESULT: 0.283
- COMPOUND: "Clc1ccc(C(c2ccccc2Cl)C(Cl)Cl)cc1 (stereo unspecified) [Mitotane]"
  ASSAY_RESULT: 0.215
- COMPOUND: "O=C(NCC1CCCCN1)c1cc(OCC(F)(F)F)ccc1OCC(F)(F)F (stereo unspecified) [Flecainide acetate]"
  ASSAY_RESULT: 0.3
- COMPOUND: "CCN(CC)CCNC(=O)c1ccc(N)cc1 [Procainamide hydrochloride]"
  ASSAY_RESULT: 0.306
- COMPOUND: "Cc1ccc(-c2ncc(Cl)cc2-c2ccc(S(C)(=O)=O)cc2)cn1 [Etoricoxib]"
  ASSAY_RESULT: 0.241
- COMPOUND: "CC1(C)O[C@@H]2C[C@H]3[C@@H]4C[C@H](F)C5=CC(=O)CC[C@]5(C)[C@H]4[C@@H](O)C[C@]3(C)[C@]2(C(=O)CO)O1 [Flurandrenolide]"
  ASSAY_RESULT: 0.289
- COMPOUND: "CC(=O)c1ccc2c(c1)N(CCCN(C)C)c1ccccc1S2 [Acetopromazine maleate salt]"
  ASSAY_RESULT: 0.228
- COMPOUND: "CC(=O)N(CC(O)CN(C(C)=O)c1c(I)c(C(=O)NCC(O)CO)c(I)c(C(=O)NCC(O)CO)c1I)c1c(I)c(C(=O)NCC(O)CO)c(I)c(C(=O)NCC(O)CO)c1I (stereo unspecified) [Iodixanol]"
  ASSAY_RESULT: 0.303
